Test Target: human TLR7 (Homo sapiens, UniProt Q9NYK1)
Construct: host or cells: HEK-Blue hTLR7 cells (HEK293-derived reporter line; that the line is stably transfected with the human TLR7 gene is own knowledge of the vendor's product)
Sequence (Q9NYK1 27-1049): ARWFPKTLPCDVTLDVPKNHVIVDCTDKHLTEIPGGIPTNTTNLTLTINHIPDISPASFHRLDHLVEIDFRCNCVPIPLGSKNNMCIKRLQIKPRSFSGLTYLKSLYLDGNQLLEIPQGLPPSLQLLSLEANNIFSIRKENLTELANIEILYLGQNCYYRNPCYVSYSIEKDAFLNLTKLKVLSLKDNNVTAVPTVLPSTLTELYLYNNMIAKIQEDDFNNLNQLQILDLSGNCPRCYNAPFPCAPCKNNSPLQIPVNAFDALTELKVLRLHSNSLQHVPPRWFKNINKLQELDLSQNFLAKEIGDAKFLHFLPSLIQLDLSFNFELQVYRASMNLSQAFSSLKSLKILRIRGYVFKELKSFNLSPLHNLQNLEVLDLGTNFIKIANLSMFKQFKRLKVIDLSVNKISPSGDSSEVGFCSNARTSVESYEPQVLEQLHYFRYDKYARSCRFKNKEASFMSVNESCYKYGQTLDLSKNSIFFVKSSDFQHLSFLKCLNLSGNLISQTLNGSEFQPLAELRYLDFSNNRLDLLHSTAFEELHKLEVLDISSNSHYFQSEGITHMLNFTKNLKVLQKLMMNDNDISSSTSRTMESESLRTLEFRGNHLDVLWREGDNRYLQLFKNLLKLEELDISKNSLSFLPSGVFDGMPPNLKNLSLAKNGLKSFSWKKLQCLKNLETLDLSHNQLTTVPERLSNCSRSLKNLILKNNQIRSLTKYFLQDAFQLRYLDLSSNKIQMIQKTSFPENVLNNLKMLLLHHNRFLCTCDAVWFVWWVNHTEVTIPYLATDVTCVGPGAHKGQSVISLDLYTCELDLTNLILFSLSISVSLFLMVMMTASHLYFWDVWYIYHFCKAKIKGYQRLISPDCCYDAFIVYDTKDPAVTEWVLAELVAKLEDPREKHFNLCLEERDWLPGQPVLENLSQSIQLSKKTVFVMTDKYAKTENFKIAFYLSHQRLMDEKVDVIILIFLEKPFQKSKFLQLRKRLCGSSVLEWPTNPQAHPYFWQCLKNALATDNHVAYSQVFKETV
Assay Explanation: Agonistic activity of compounds on HEK-Blue hTLR7 cells (QUANTI-Blue reporter, OD620)
Assay type: cell-based
Test Context: HEK-Blue hTLR7 cells; OD620 at which the activation effect reached the maximum
Reported Metric: Emax
Output should be the measured figure followed by the unit it is expressed in.

Recorded Emax for CCCCc1nc2c(N)nc3cc(C4CCNCC4)sc3c2n1CC1CCOCC1 [Compound 33] on human TLR7 (Homo sapiens, UniProt Q9NYK1) was 1.46 OD620

Recorded Emax for CCOCc1nc2c(N)nc3ccsc3c2n1CCCCN [Compound 5] on human TLR7 (Homo sapiens, UniProt Q9NYK1) was 1.46 OD620

Recorded Emax for COCCc1nc2c(N)nc3ccsc3c2n1CC1CCN(C)CC1 [Compound 56] on human TLR7 (Homo sapiens, UniProt Q9NYK1) was 1.41 OD620

Recorded Emax for COCCc1nc2c(N)nc3ccsc3c2n1CCCCN [Compound 4] on human TLR7 (Homo sapiens, UniProt Q9NYK1) was 1.74 OD620

Recorded Emax for CCCCc1nc2c(N)nc3cc(C4CCN(C)CC4)sc3c2n1C [Compound 32] on human TLR7 (Homo sapiens, UniProt Q9NYK1) was 0.91 OD620

Recorded Emax for CCCCc1nc2c(N)nc3cc(C)sc3c2n1CC1CCN(CCOCCOCCN)CC1 [Compound 15] on human TLR7 (Homo sapiens, UniProt Q9NYK1) was 2.40 OD620

Recorded Emax for CCCCc1nc2c(N)nc3cc(C)sc3c2n1CC1CCOCC1 [Compound 26] on human TLR7 (Homo sapiens, UniProt Q9NYK1) was 1.78 OD620

Recorded Emax for CCCCc1nc2c(N)nc3cc(C)sc3c2n1CCCCN [Compound 1] on human TLR7 (Homo sapiens, UniProt Q9NYK1) was 1.36 OD620

Recorded Emax for COCCc1nc2c(N)nc3ccsc3c2n1CC1CCNCC1 [Compound 55] on human TLR7 (Homo sapiens, UniProt Q9NYK1) was 1.44 OD620

Recorded Emax for CCCCc1nc2c(N)nc3cc(C4CCN(C)CC4)sc3c2n1CC1CCOCC1 [Compound 34] on human TLR7 (Homo sapiens, UniProt Q9NYK1) was 1.21 OD620
